Target: human progesterone receptor A (Homo sapiens)
Sequence (P06401 1-769 isoform P06401-2): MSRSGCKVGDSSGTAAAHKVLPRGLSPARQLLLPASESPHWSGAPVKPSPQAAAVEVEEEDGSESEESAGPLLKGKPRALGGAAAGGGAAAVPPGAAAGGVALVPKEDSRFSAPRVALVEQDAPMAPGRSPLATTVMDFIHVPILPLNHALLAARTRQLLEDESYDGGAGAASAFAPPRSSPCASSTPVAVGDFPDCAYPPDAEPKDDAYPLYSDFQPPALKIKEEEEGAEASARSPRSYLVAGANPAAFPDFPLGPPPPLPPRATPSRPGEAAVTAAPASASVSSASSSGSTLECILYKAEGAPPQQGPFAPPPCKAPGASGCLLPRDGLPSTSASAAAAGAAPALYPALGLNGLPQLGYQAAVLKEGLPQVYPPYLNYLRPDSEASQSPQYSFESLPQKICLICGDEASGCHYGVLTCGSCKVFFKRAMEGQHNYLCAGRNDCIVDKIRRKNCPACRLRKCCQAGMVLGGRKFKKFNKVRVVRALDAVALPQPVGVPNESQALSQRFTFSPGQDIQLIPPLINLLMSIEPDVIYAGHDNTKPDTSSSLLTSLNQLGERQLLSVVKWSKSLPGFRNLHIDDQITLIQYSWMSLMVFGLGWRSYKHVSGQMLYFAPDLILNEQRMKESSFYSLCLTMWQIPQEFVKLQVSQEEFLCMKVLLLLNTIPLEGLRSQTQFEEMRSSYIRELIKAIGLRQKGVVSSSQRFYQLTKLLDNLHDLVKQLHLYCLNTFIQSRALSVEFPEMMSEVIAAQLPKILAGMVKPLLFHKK
Assay: Progesterone receptor-antagonistic action in stably transfected SK-N-MC cells, MMTV-LUC reporter (PR-A)
Conditions: antagonistic potency vs 0.1 nmol/l promegestone, 24 hours
READOUT: IC50 (nM)

{"MOLECULE": "CC(C)(O)c1ccc([C@H]2C[C@@]3(C)[C@@H](CC[C@@]3(O)C(F)(F)C(F)(F)F)[C@@H]3CCC4=CC(=O)CCC4=C32)cc1 [Example 5]", "IC50 / nM": 0.016}

a. CCOC(=O)CCNC(=O)NCc1ccc([C@H]2C[C@@]3(C)[C@@H](CC[C@@]3(O)C(F)(F)C(F)(F)F)[C@@H]3CCC4=CC(=O)CCC4=C32)cc1 [Example 22]
b. Cc1nc(CCc2ccc([C@H]3C[C@@]4(C)[C@@H](CC[C@@]4(O)C(F)(F)C(F)(F)F)[C@@H]4CCC5=CC(=O)CCC5=C43)cc2)cs1 [Example 3]
Which entry shows the lesser value of IC50 here, a or b ? State your choice using its label.
b
(b: 0.09 nM, a: 0.5 nM)
